- studySystem: Human Fc (human)
- runDescription: ELISA; negative control
valueKind: optical density (OD)
Answers are plain numbers, in OD.

Items follow; give optical density for each.
1. 365_C04 (antibody, V domains shown) VH: EVQLLESGGGLVQPGGSLRLSCAASGFTFDSYSMNWVRQAPGKGLEWVANINYNGGYKGYADSVKGRFTISRDNSKNTLYLQMNSLRAEDTAVYYCARGATWHDTHLDYWGQGTLVTVSS VL: DIQMTQSPSSLSASVGDRVTITCRASQSILTYLNWYQQKPGKAPKLVIYAATSLASGVPSRFSGSGSGTDFTLTISSLQPEDFATYYCQQSYDTPLTFGGGTKVEIK
2. 371_E08 (antibody, V domains shown) VH: EVQLLESGGGLVQPGGSLRLSCAASGFTFSSYSMNWVRQAPGKGLEWVSNINYNSGYKSYADSVKGRFTISRDNSKNTLYLQMNSLRAEDTAVYYCARGATWHDTHLDYWGQGTLVTVSS VL: DIQMTQSPSSLSASVGDRVTITCRASQSIVSYVNWYQQKPGKAPKLVIYAATSRHSGVPSRFSGSGSGTDFTLTISSLQPEDFATYYCQQSYDLPLTFGGGTKVEIK
3. 365_C11 (antibody, V domains shown) VH: EVQLLESGGGLVQPGGSLRLSCAASGFTFSSYSMNWVRQAPGKGLEWVAGINYNGGYKSYADSVKGRFTISRDNSKNTLYLQMNSLRAEDTAVYYCARSANWHDTHLDYWGQGTLVTVSS VL: DIQMTQSPSSLSASVGDRVTITCRASQSIITYLNWYQQKPGKAPKLVIYAVTSRASGVPSRFSGSGSGTDFTLTISSLQPEDFATYYCQQSYSLPLTFGGGTKVEIK
4. 366_H07 (antibody, V domains shown) VH: EVQLLESGGGLVQPGGSLRLSCAASGFTFSSYGMHWVRQAPGKGLEWVSGINYNGGYTSYADSVKGRFTISRDNSKNTLYLQMNSLRAEDTAVYYCARSANWHDTALDYWGQGTLVTVSS VL: DIQMTQSPSSLSASVGDRVTITCRASQSIISYVNWYQQKPGKAPKLVIYAVTSRASGVPSRFSGSGSGTDFTLTISSLQPEDFATYYCQQSYENPLTFGGGTKVEIK
5. 367_B08 (antibody, V domains shown) VH: EVQLLESGGGLVQPGGSLRLSCAASGFTFSDYGMNWVRQAPGKGLEWVSGINYNGGYKGYADSVKGRFTISRDNSKNTLYLQMNSLRAEDTAVYYCARSANWHDTALDYWGQGTLVTVSS VL: DIQMTQSPSSLSASVGDRVTITCRASQSILTYLNWYQQKPGKAPKLVIYAATSRASGVPSRFSGSGSGTDFTLTISSLQPEDFATYYCQQSYDNPLTFGGGTKVEIK
6. 370_E05 (antibody, V domains shown) VH: EVQLLESGGGLVQPGGSLRLSCAASGFTFSSYGMNWVRQAPGKGLEWVSNINYNGGYKGYADSVKGRFTISRDNSKNTLYLQMNSLRAEDTAVYYCARGATWHDTHLDYWGQGTLVTVSS VL: DIQMTQSPSSLSASVGDRVTITCRASQSISTYLNWYQQKPGKAPKLVIYAVTSRASGVPSRFSGSGSGTDFTLTISSLQPEDFATYYCQQSYNSPLTFGGGTKVEIK
7. 370_E04 (antibody, V domains shown) VH: EVQLLESGGGLVQPGGSLRLSCAASGFTFSSYSMNWVRQAPGKGLEWVANINYNGGYKGYADSVKGRFTISRDNSKNTLYLQMNSLRAEDTAVYYCARGATWHDTHLDYWGQGTLVTVSS VL: DIQMTQSPSSLSASVGDRVTITCRASQSILTYLNWYQQKPGKAPKLLIYAVTSLHSGVPSRFSGSGSGTDFTLTISSLQPEDFATYYCQQSYETPLTFGGGTKVEIK
8. 366_G04 (antibody, V domains shown) VH: EVQLLESGGGLVQPGGSLRLSCAASGFTFSSYSMNWVRQAPGKGLEWVSGINYNSGYTSYADSVKGRFTISRDNSKNTLYLQMNSLRAEDTAVYYCARSANWHDTALDYWGQGTLVTVSS VL: DIQMTQSPSSLSASVGDRVTITCRASQSIITYLNWYQQKPGKAPKLLIYAATSRASGVPSRFSGSGSGTDFTLTISSLQPEDFATYYCQQSDDTPLTFGGGTKVEIK

Data returned:
0.305
0.251
0.296
0.285
0.37
0.427
0.292
0.31

Items follow; give optical density for each.
1. 366_F07 (antibody, V domains shown) VH: EVQLLESGGGLVQPGGSLRLSCAASGFTFSDYSMNWVRQAPGKGLEWVAGINYNSGYTSYADSVKGRFTISRDNSKNTLYLQMNSLRAEDTAVYYCARSANWHDTHLDYWGQGTLVTVSS VL: DIQMTQSPSSLSASVGDRVTITCRASQSIITYLNWYQQKPGKAPKLLIYAATSRASGVPSRFSGSGSGTDFTLTISSLQPEDFATYYCQQSYETPLTFGGGTKVEIK
2. 365_A03 (antibody, V domains shown) VH: EVQLLESGGGLVQPGGSLRLSCAASGFTFSSYSMNWVRQAPGKGLEWVAGINYNSGYKGYADSVKGRFTISRDNSKNTLYLQMNSLRAEDTAVYYCARSANWHDTALDYWGQGTLVTVSS VL: DIQMTQSPSSLSASVGDRVTITCRASQSILSYLNWYQQKPGKAPKLVIYAVTSRASGVPSRFSGSGSGTDFTLTISSLQPEDFATYYCQQSYDSPLTFGGGTKVEIK

Data returned:
[0.353, 0.342]

Data request: Look up optical density for this binder: 366_E10 (antibody, V domains shown) VH: EVQLLESGGGLVQPGGSLRLSCAASGFTFDSYGMNWVRQAPGKGLEWVSGINYNGGYKGYADSVKGRFTISRDNSKNTLYLQMNSLRAEDTAVYYCARSANWHDTHLDYWGQGTLVTVSS VL: DIQMTQSPSSLSASVGDRVTITCRASQSILSYVNWYQQKPGKAPKLVIYAATSRHSGVPSRFSGSGSGTDFTLTISSLQPEDFATYYCQQSYSLPLTFGGGTKVEIK
Data returned: 0.271
